Let's look at some binders and their measured Anti-CD28 Fab signal (phage binding ELISA).
- experimentalSystem: Anti-CD28 Fab (SEQ ID NOs: 696, 697)
- Sequence (VH, as listed by the source, chain 1 of 2): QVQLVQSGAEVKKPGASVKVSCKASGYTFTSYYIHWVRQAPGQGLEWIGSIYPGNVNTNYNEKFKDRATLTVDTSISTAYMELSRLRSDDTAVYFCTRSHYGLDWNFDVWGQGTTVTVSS
- Sequence (VL, as listed by the source, chain 2 of 2): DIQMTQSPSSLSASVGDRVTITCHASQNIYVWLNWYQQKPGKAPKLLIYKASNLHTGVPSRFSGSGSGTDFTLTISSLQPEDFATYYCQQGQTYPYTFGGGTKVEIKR
- experimentNotes: phage binding ELISA; biotinylated anti-CD28 Fab on neutravidin plate, clonal phage supernatant, anti-M13 HRP detection
The answer should be written as a number, with no unit following it.

In [3]: df
Out[3]:
                       binder  reported
0  YCDGHSPAYMAKCL [Phage-800]      1.83

Query :: Could you share which Anti-CD28 Fab signal (phage binding ELISA) value was measured for YCAGHLPEYLSKCL [Phage-795] ?
Result :: 1.84

Query :: Could you share which Anti-CD28 Fab signal (phage binding ELISA) value was measured for YCDGHSWAYMWKCL [Phage-791] ?
Result :: 1.85

Query :: Could you share which Anti-CD28 Fab signal (phage binding ELISA) value was measured for YCDGHSAAYIMKCL [Phage-792] ?
Result :: 1.84
